tested on: 217524-143-R1-J4-PDC spheroids with HUVEC/MSC, viability; test: Anticancer human tumor 217524-143-R1-J4-PDC patient-derived pancreatic carcinoma cell line growth inhibition [CLK]; settings: second compound 0.0316 µM; first compound 0.03 µM; active = viability on the fitted dose curve at most 10% of control; inactive = the rest
Pick one: t = active, f = inactive

Please share the test call associated with NC(=O)C(=Cn1cnc(-c2cc(C(F)(F)F)cc(C(F)(F)F)c2)n1)c1cncnc1 + CNC(=O)c1ccc(Nc2nc(OC3CCCC3)c3c(-c4ccc5nc(C)oc5c4)c[nH]c3n2)c(OC)c1 .
f

Please share the test call associated with CC(C)CC(NC(=O)C(Cc1ccccc1)NC(=O)c1cnccn1)B(O)O (stereo unspecified) + CNC(=O)c1ccc(Nc2nc(OC3CCCC3)c3c(-c4ccc5nc(C)oc5c4)c[nH]c3n2)c(OC)c1 .
t

Please share the test call associated with C=CC(=O)Nc1cc(Nc2nccc(-c3cn(C)c4ccccc34)n2)c(OC)cc1N(C)CCN(C)C + CN1CCN(c2cc(C(=O)Nc3cc4cc(-c5cnn(C)c5)ccc4cn3)ccn2)CC1 .
f

Please share the test call associated with NC(=O)C(=Cn1cnc(-c2cc(C(F)(F)F)cc(C(F)(F)F)c2)n1)c1cncnc1 + CN1CCN(c2cc(C(=O)Nc3cc4cc(-c5cnn(C)c5)ccc4cn3)ccn2)CC1 .
f

Please share the test call associated with CC(C)CC(NC(=O)C(Cc1ccccc1)NC(=O)c1cnccn1)B(O)O (stereo unspecified) + CN1CCN(c2cc(C(=O)Nc3cc4cc(-c5cnn(C)c5)ccc4cn3)ccn2)CC1 .
t

Please share the test call associated with C=CC(=O)Nc1cc(Nc2nccc(-c3cn(C)c4ccccc34)n2)c(OC)cc1N(C)CCN(C)C + CNC(=O)c1ccc(Nc2nc(OC3CCCC3)c3c(-c4ccc5nc(C)oc5c4)c[nH]c3n2)c(OC)c1 .
f

---

test system: 217524-143-R1-J4-PDC spheroids with HUVEC/MSC, viability; test: Anticancer human tumor 217524-143-R1-J4-PDC cell line growth inhibition [CLK]; conditions: second compound 0.316 µM; first compound 0.316 µM; hits give low values;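 also: spheroids exposed to agents for seven days before reading; 100% = DMSO vehicle control viability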
Could you please report measured viability, T/C for the items listed next?

Given the entry CCCS(=O)(=O)Nc1ccc(F)c(C(=O)c2c[nH]c3ncc(-c4ccc(Cl)cc4)cc23)c1F + CNC(=O)c1ccc(Nc2nc(OC3CCCC3)c3c(-c4ccc5nc(C)oc5c4)c[nH]c3n2)c(OC)c1 , report its measured viability, T/C.
45.6%

Given the entry C=C(F)C(=O)N1CCN(c2nc(OCC3CCCN3C)nc3c2CCN(c2cccc4cccc(Cl)c24)C3)CC1CC#N (stereo not drawn) + CNC(=O)c1ccc(Nc2nc(OC3CCCC3)c3c(-c4ccc5nc(C)oc5c4)c[nH]c3n2)c(OC)c1 , report its measured viability, T/C.
41.9%

Given the entry CCN1CCN(Cc2ccc(Nc3ncc(F)c(-c4cc(F)c5nc(C)n(C(C)C)c5c4)n3)nc2)CC1 + CN1CCN(c2cc(C(=O)Nc3cc4cc(-c5cnn(C)c5)ccc4cn3)ccn2)CC1 , report its measured viability, T/C.
15.8%

---

test system: 217524-143-R1-J4-PDC spheroids with HUVEC/MSC, viability; test: Anticancer human tumor 217524-143-R1-J4-PDC cell line growth inhibition [CLK]; settings: second compound 0.316 µM; first compound 10 µM; hits give low values;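 also: spheroids exposed to agents for seven days before reading; 100% = DMSO vehicle control viability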
Label key: Satisfied means viability, T/C under 6%; Not satisfied means viability, T/C of 6% or more.

Just wondering, is viability, T/C of CC1(C)CCC(CN2CCN(c3ccc(C(=O)NS(=O)(=O)c4ccc(NCC5CCOCC5)c([N+](=O)[O-])c4)c(Oc4cnc5[nH]ccc5c4)c3)CC2)=C(c2ccc(Cl)cc2)C1 + CN1CCN(c2cc(C(=O)Nc3cc4cc(-c5cnn(C)c5)ccc4cn3)ccn2)CC1 below 6%?
Not satisfied

Just wondering, is viability, T/C of Nc1ccccc1NC(=O)c1ccc(CNC(=O)OCc2cccnc2)cc1 + CN1CCN(c2cc(C(=O)Nc3cc4cc(-c5cnn(C)c5)ccc4cn3)ccn2)CC1 below 6%?
Satisfied

Just wondering, is viability, T/C of COc1cccc2c1C(=O)c1c(O)c3c(c(O)c1C2=O)CC(O)(C(=O)CO)CC3OC1CC(N)C(O)C(C)O1 (stereo not given) + CN1CCN(c2cc(C(=O)Nc3cc4cc(-c5cnn(C)c5)ccc4cn3)ccn2)CC1 below 6%?
Satisfied

Just wondering, is viability, T/C of Nc1ccn(C2OC(CO)C(O)C2(F)F)c(=O)n1 (stereo not given) + CNC(=O)c1ccc(Nc2nc(OC3CCCC3)c3c(-c4ccc5nc(C)oc5c4)c[nH]c3n2)c(OC)c1 below 6%?
Not satisfied

Just wondering, is viability, T/C of C=C(F)C(=O)N1CCN(c2nc(OCC3CCCN3C)nc3c2CCN(c2cccc4cccc(Cl)c24)C3)CC1CC#N (stereo not given) + CNC(=O)c1ccc(Nc2nc(OC3CCCC3)c3c(-c4ccc5nc(C)oc5c4)c[nH]c3n2)c(OC)c1 below 6%?
Satisfied
